- Target desc: Protein kinase C epsilon type (Homo sapiens) (UniProt Q02156)
- Sequence (Q02156 whole entry): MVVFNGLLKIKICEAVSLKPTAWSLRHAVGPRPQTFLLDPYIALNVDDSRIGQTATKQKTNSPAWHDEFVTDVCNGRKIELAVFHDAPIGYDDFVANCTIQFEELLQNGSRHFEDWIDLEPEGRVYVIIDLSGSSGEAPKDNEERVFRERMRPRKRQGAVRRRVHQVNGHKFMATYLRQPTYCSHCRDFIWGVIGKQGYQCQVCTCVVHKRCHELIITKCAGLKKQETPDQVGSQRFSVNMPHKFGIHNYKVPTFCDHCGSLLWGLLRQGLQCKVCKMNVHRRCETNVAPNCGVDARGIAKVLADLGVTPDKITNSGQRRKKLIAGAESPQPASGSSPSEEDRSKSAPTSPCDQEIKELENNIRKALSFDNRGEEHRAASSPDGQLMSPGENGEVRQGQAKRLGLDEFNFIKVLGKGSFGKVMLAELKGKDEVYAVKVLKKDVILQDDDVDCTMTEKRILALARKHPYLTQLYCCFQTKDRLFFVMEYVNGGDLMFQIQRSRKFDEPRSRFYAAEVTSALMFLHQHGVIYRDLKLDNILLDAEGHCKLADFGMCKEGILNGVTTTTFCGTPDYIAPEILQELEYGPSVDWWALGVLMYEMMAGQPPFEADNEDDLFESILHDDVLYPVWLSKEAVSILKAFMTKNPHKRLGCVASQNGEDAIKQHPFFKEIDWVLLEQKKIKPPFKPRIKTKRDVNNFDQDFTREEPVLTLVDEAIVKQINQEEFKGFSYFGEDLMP
- Test method notes: Inhibition of Protein kinase C epsilon type at 10 uM by luciferase assay
Measure: inhibition

Incoming: Supply inhibition value. Item: `Fc1ccc(Cl)cc1-c1nc(Nc2ccncc2)c2nccnc2n1`
Outgoing: > 25%

Incoming: Supply inhibition value. Item: `O=C(c1ccc(Nc2nccc(-c3cc4ccccc4s3)n2)cc1)N1CCC(N2CCCC2)CC1`
Outgoing: > 29%

Incoming: Supply inhibition value. Item: `Cn1cc(C2=C(c3cn(CCCSC(=N)N)c4ccccc34)C(=O)NC2=O)c2ccccc21`
Outgoing: 47%

---

Provide the recorded inhibition for the entries that follow.
- Target desc: Protein kinase C theta type (Homo sapiens)
- Test method notes: Inhibition of Protein kinase C theta type at 10 uM by luciferase assay

Incoming: System Protein kinase C theta type (Homo sapiens). Read-out inhibition. Item `Fc1ccc(Cl)cc1-c1nc(Nc2ccncc2)c2nccnc2n1` . Report value.
Outgoing: > 25%

Incoming: System Protein kinase C theta type (Homo sapiens). Read-out inhibition. Item `O=C(c1ccc(Nc2nccc(-c3cc4ccccc4s3)n2)cc1)N1CCC(N2CCCC2)CC1` . Report value.
Outgoing: > 29%

Incoming: System Protein kinase C theta type (Homo sapiens). Read-out inhibition. Item `Cn1cc(C2=C(c3cn(CCCSC(=N)N)c4ccccc34)C(=O)NC2=O)c2ccccc21` . Report value.
Outgoing: 47%

Incoming: System Protein kinase C theta type (Homo sapiens). Read-out inhibition. Item `O=S(=O)(NCCNC/C=C/c1ccc(Br)cc1)c1cccc2cnccc12` . Report value.
Outgoing: 20%

---

- Target desc: Protein kinase C eta type (Homo sapiens) (UniProt P24723)
- Sequence (P24723 whole entry): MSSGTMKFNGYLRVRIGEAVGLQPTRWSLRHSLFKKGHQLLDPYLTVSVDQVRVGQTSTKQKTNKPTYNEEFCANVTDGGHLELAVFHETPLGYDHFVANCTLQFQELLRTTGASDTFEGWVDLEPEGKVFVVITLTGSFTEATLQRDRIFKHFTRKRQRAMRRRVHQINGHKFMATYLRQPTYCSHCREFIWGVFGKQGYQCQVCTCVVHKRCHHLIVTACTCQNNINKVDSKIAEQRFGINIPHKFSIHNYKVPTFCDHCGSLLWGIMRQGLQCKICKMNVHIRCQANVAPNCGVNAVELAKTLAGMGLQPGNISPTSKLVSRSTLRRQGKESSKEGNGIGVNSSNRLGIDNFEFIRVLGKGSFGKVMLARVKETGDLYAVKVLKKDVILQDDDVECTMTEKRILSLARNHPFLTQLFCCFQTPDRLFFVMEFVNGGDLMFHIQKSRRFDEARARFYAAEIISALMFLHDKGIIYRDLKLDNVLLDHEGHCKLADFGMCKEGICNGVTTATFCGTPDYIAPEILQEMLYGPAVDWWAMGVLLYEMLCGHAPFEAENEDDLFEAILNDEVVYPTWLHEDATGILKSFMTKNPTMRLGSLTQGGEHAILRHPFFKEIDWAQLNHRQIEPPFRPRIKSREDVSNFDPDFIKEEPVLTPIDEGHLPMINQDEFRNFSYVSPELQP
- Test method notes: Inhibition of Protein kinase C eta type at 10 uM by luciferase assay
Provide the recorded inhibition for the entries that follow.

Incoming: Supply inhibition value. Item: `Fc1ccc(Cl)cc1-c1nc(Nc2ccncc2)c2nccnc2n1`
Outgoing: > 25%

Incoming: Supply inhibition value. Item: `Cn1cc(C2=C(c3cn(CCCSC(=N)N)c4ccccc34)C(=O)NC2=O)c2ccccc21`
Outgoing: 47%

Incoming: Supply inhibition value. Item: `O=C(c1ccc(Nc2nccc(-c3cc4ccccc4s3)n2)cc1)N1CCC(N2CCCC2)CC1`
Outgoing: 83%

Incoming: Supply inhibition value. Item: `O=S(=O)(NCCNC/C=C/c1ccc(Br)cc1)c1cccc2cnccc12`
Outgoing: 20%

---

- Target desc: Aurora kinase B (Homo sapiens) (UniProt Q96GD4)
- Sequence (Q96GD4 whole entry): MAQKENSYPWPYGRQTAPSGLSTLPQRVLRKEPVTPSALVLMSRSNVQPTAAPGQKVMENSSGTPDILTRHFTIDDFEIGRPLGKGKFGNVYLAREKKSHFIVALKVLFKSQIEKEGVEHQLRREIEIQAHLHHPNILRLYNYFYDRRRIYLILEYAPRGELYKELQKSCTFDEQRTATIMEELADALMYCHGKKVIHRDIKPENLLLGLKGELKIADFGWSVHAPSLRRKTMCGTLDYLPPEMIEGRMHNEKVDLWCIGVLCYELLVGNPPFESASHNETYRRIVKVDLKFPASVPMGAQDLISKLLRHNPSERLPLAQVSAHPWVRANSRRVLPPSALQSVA
- Test method notes: Inhibition of Aurora kinase B at 10 uM by luciferase assay
Measure: inhibition

Incoming: Supply inhibition value. Item: `COc1cc2c(Nc3ccc(NC(=O)c4ccccc4)cc3)ncnc2cc1OCCCN1CCOCC1`
Outgoing: > 50%

Incoming: Supply inhibition value. Item: `COc1cc2ncn(-c3cc(OCc4ccccc4C(F)(F)F)c(C(N)=O)s3)c2cc1OC`
Outgoing: > 25%

Incoming: Supply inhibition value. Item: `Cc1[nH]c(/C=C2\C(=O)Nc3ccc(S(=O)(=O)Cc4c(Cl)cccc4Cl)cc32)c(C)c1C(=O)N1CCC[C@@H]1CN1CCCC1`
Outgoing: > 25%

Incoming: Supply inhibition value. Item: `NC(=O)Nc1sc(-c2ccc(F)cc2)cc1C(N)=O`
Outgoing: > 25%

Incoming: Supply inhibition value. Item: `O=C(c1ccc(Nc2nccc(-c3cc4ccccc4s3)n2)cc1)N1CCC(N2CCCC2)CC1`
Outgoing: > 29%

Reference source for all entries: ChEMBL document CHEMBL2086354
